Tested on: P. falciparum stage V gametocytes
Parameters: BacTiter-Glo ATP luminescence viability of purified stage V gametocytes in 384-well plates, per cent inhibition versus DMSO
Test conditions: 48 h, 5 µM; inhibitor
The campaign covered roughly 13,000 compounds. About 3,200 (25%) showed an effect of 50% or more. The list shows a part of the results.
In this section we review reported % Inhibition values for a set of compounds.
Please state the figure in %; there is no need to write the unit.

// known answers, use as guide
Compound	Target desc	% Inhibition [%]
O=C(O)C(F)(F)F.OC1CCCN(Cc2ccc(-c3ccc(-c4nc5ccccc5[nH]4)cc3)cc2)C1 (centres unmarked)	P. falciparum stage V gametocytes	-32.2
CC(C)(C)c1cc(NC(=O)c2ccc(Cl)c([N+](=O)[O-])c2)cc(C(C)(C)C)c1	P. falciparum stage V gametocytes	2.881
N#Cc1ccc(-c2cnc3ccc(NCCc4cccnc4)nn23)cc1	P. falciparum stage V gametocytes	23.92

Look up and state reported % Inhibition for `Cc1noc(C)c1-c1cccc(CNCc2ccc(-c3cccc(-c4nc5cc(C(F)(F)F)ccc5[nH]4)c3)cc2)c1.O=C(O)C(F)(F)F`
-9.881

---

System: P. falciparum stage V gametocytes
Design: BacTiter-Glo ATP luminescence viability of purified stage V gametocytes in 384-well plates, per cent inhibition versus DMSO
Test conditions: 48 h, 5 µM; inhibitor
Among all 13,000 compounds or so, about 3,200 (25%) showed an effect of 50% or more. Some of the results follow.
In this section we review reported % Inhibition values for a set of molecules.
Please state the figure in %; there is no need to write the unit.

Molecule	Parameter	Value
O=C(COc1cnc2ccccc2n1)Nc1ccccc1Sc1ccc(Cl)cc1	% Inhibition	99.33
CCc1ccc(NC(=O)c2ccc(CN3CCCN(Cc4cccc(C)c4)CC3)cc2)cc1	% Inhibition	-10.99
NS(=O)(=O)c1cncc(-c2ccc3nccc(-c4cn[nH]c4)c3n2)c1	% Inhibition	66.05

Proceed to the following item.
Answer briefly: % Inhibition recorded on P. falciparum stage V gametocytes for CCCC(C)n1ccc2c3c(N)nc(N)nc3ccc21 (centres unmarked)
-7.389

---

In this section we review reported % Inhibition values for a set of compounds.
Tested on: P. falciparum stage V gametocytes
Parameters: BacTiter-Glo ATP luminescence viability of purified stage V gametocytes in 384-well plates, per cent inhibition versus DMSO
Test conditions: 48 h, 5 µM; inhibitor
In all, about 13,000 compounds went through this assay and about 3,200 (25%) showed an effect of 50% or more. This is one part of the list.
Please state the figure in %; there is no need to write the unit.

// known answers, use as guide
Compound	Measurement unit	Value
O=C(/C=C/c1ccc(Cl)c(Cl)c1)NCCCCCN1CCCC(c2c[nH]c3ccccc23)C1 (stereo not shown)	%	8.151
CN(CCN1CCC(c2c[nH]c3ccccc23)CC1)C(=O)OCCCCCNC(=O)/C=C/c1ccc(Cl)c(Cl)c1	%	-36.9
O=C(/C=C/c1ccc(Cl)c(Cl)c1)NCCCCCN1CCC(c2c[nH]c3c(-c4ccccc4)cccc23)CC1	%	108
CN(CCC(CCN1CCC(c2c[nH]c3ccccc23)CC1)c1ccccc1)C(=O)Nc1ccc(Cl)c(Cl)c1 (stereo not shown)	%	-72.07
O=C(/C=C/c1ccc(Cl)c(Cl)c1)NCc1ccc(CN2CCC(c3c[nH]c4ccccc34)CC2)cc1	%	-66.38

Answer briefly: % Inhibition recorded on P. falciparum stage V gametocytes for `O=C(/C=C/c1ccc(Cl)c(Cl)c1)NCCCCCN1CCC(c2cn[nH]c2-c2ccccc2)CC1`
-12.94

Answer briefly: % Inhibition recorded on P. falciparum stage V gametocytes for `O=C(/C=C/c1ccc(Cl)c(Cl)c1)NCCCN1CCC(c2c[nH]c3ccccc23)CC1`
45.36
